# procedure_text: MRP1 drug-resistance reversers in H69AR cells – cell-based, doxorubicin co-treatment, primary screen (AID 602);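 as to differential viability (reversal): larger differential means the compound sensitizes cells more to doxorubicin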
# condition_context: H69AR cells + 2 uM doxorubicin, CellTiter-Glo, 72 h; at 10 µM; stronger effect = higher value
The whole screen tested about 85,000 compounds, of which about 35 (0.04%) were called active. What follows is part of a selection rich in actives, with near analogues and random picks from the rest.
We begin with a simple list: items and their reported differential viability (reversal).
The figure you give is taken to be in %; do not add the unit.

COc1c(F)c(F)c(C(=O)O)c(Nc2ccccc2C)c1F | 3.75
CC(C)(C)c1ccc(C(=O)NNC(=O)Cc2ccccc2)cc1 | 9.15
COc1ccc(CC(NC(C)=O)C(=O)N2CCN(C(=O)Nc3cccc(Cl)c3)CC2)cc1OC (configuration not stated) | 6.8

Prompt: I'd like to know its differential viability (reversal). The compound in question is `O=S(=O)(N1CCCCC1)N1CCNCC1`
Completion: -0.65

Prompt: What would you report for `CCCc1nc(NCc2ccc3c(c2)OCO3)c2nnn(Cc3ccccc3Cl)c2n1` ?
Completion: 1.6

Prompt: Moving on to the next compound: `CS(=O)(=O)N(Cc1ccc(Cl)cc1)c1ccc(C(=O)NCCSCc2ccco2)cc1`
Completion: -17.6

====

# procedure_text: MRP1 drug-resistance reversers in H69AR cells – cell-based, doxorubicin co-treatment, primary screen (AID 602)
# condition_context: H69AR cells, CellTiter-Glo, 72 h; measured here: cytotoxicity without doxorubicin; at 10 µM
Among all 85,000 compounds or so, about 35 (0.04%) were called active. Many of the other results were omitted from the sample, so actives are more common in it than they were.
property_label: viability (%)
Hi! Could you send only the number? It should be in %, unit omitted.

Past entries and their recorded results:
O=C(CSc1nnc(-c2cccnc2)n1CCc1ccccc1)NCc1ccccc1 | 89.6
COc1ccc(C2C(C#N)=C(/N=C/N3CCOCC3)OC3=C2C(=O)CC(C)(C)C3)cc1OC (stereo unspecified) | 96.7
Cc1ccccc1N1CCN(CCCOc2ccc3c(C)cc(=O)oc3c2)CC1 | 58.7
CCCc1nc2scc(-c3ccc(C)cc3)c2c(=O)n1N | 46.1
CCC(C)(C)n1nnnc1CN1CCN(c2nc3ccc(C)cc3cc2C#N)CC1 | 81.4

Prompt: Item `CS(=O)(=O)N(CC(=O)Nc1ccc(Cl)c(Cl)c1)C1CCCCC1` has what recorded viability?
Completion: 16.6

Prompt: What do you get for `Cc1cccc(S(=O)(=O)CC(=O)Nc2nc(-c3ccccc3)cs2)c1` ?
Completion: 99.7

Prompt: Next entry: `Cc1ccc(SCCC(=O)OCC(=O)Nc2ncc(Cl)cc2Cl)cc1`
Completion: 79.6

Prompt: // next record CCOc1cc2[nH]c(=S)n(CCN3CCCCC3C)c(=O)c2cc1OCC (stereo unspecified)
Completion: 82.5

Prompt: Follow-up entry: `Cc1cc(O)cc(O)c1C(=O)Cc1cnn(-c2ccccc2)c1`
Completion: 79.8

====

# procedure_text: MRP1 drug-resistance reversers in H69AR cells – cell-based, doxorubicin co-treatment, primary screen (AID 602)
# condition_context: H69AR cells, CellTiter-Glo, 72 h; measured here: cytotoxicity without doxorubicin; at 10 µM
Screen size: about 85,000 compounds; about 35 (0.04%) were called active. Only a selection was taken, and actives are over-represented in it overall.
viability listing for selected compounds.
Response body: numeric value in %, unit text excluded.

// known answers, use as guide
CS(=O)(=O)N(CC(O)Cn1c2ccccc2c2ccccc21)c1cccc2ccccc12 (configuration not stated) | 1.71
COc1c(F)c(F)c(C(=O)O)c(Nc2ccccc2C)c1F | 98.5
CCOc1ccc(N=Cc2c(O)n(-c3cccc(C)n3)c(=O)c3ccccc23)cc1 | 91.4
COc1ccc(-n2c(C)csc2=S)cc1 | 86.6
CCn1c(-c2ccoc2C)n[nH]c1=S | 89.5
Cc1cc(C(=O)Nc2ccccc2N2CCOCC2)c2ccccc2n1 | 67.9
O=C1CSC(c2cccc(F)c2)N1c1ccc(O)cc1 (configuration not stated) | 101
CCOc1nc(NCCN2CCOCC2)nc(Nc2ccc(C)cc2)n1 | 91.8

Prompt: State the recorded viability for this entry: `O=C(CCS(=O)(=O)c1cccc2nsnc12)N1CCN(c2ccccc2F)CC1`
Completion: 91

Prompt: Okay, and Cc1cc(NC(=O)CSc2nc(C(C)C)nc3sc4c(c23)CCC(C)C4)no1 (configuration not stated) ?
Completion: 6.01

Prompt: Please answer likewise for `Cn1ccs/c1=N\S(=O)(=O)c1ccc(C(C)(C)C)cc1`
Completion: 89.4

Prompt: Input `CC1(C)COC(c2cccn2Cc2ccccc2Cl)=N1`
Completion: 104
